# Assay Notes: Absorption spectra of free dye in methanol or pH 7.4 buffer
# Assay type: physicochemical
# Test Context: pH 7.4 buffer, no DNA
# Procedure: The strength of absorption and/or fluorescence is indicated by the extinction coefficient. The maximum extinction coefficient (εmax) for the unbound dyes is calculated from the longest wavelength absorption maximum according to the Beer-Lambert law based on the known concentration of the solutions. The extinction coefficient for the dye bound to DNA is calculated from the change in maximum absorbance compared to the dye in free aqueous solution. […]
εmax (extinction coefficient) reference

Worked cases, εmax (extinction coefficient) given:
# Record Smiles, εmax (extinction coefficient)
data = [
    ("C[n+]1c(C=CC=C2C=CN(CCC[N+](C)(C)C)c3ccccc32)oc2ccccc21", "122,000 M^-1 cm^-1"),
    ("C[n+]1c(C=C2C=CN(CCC[N+](C)(C)C)c3ccccc32)oc2ccccc21", "66,000 M^-1 cm^-1"),
    ("C[n+]1c(C=C2C=CN(CCC[N+](C)(C)C)C=C2)sc2ccccc21", "76,200 M^-1 cm^-1"),
]

Determine its reported εmax (extinction coefficient): `C[n+]1c(C=CC=C2C=CN(CCC[N+](C)(C)C)c3ccccc32)sc2ccccc21` 98,200 M^-1 cm^-1

Determine its reported εmax (extinction coefficient): `C[n+]1c(C=C2C=CN(CCC[N+](C)(C)C)c3ccccc32)sc2ccccc21` 68,500 M^-1 cm^-1

Determine its reported εmax (extinction coefficient): `C[n+]1c(C=C2C=CN(CCC[N+](C)(C)C)C=C2)oc2ccccc21` 75,500 M^-1 cm^-1

----------
# Test system: calf thymus DNA
# Assay Notes: Fluorescence emission spectra and enhancement on binding to calf thymus DNA
# Test Context: pH 7.4 + DNA, 0.4 μM dye
Quantity Measured: λF (fluorescence maximum), bound to DNA (nm)

# Record Smiles, Quantity Measured, Result Value
measured = [
    ("C[n+]1c(C=C2C=CN(CCC[N+](C)(C)C)C=C2)sc2ccccc21", "λF (fluorescence maximum), bound to DNA", 481),
    ("C[n+]1c(C=CC=C2C=CN(CCC[N+](C)(C)C)c3ccccc32)oc2ccccc21", "λF (fluorescence maximum), bound to DNA", 631),
    ("C[n+]1c(C=CC=CC=C2C=CN(CCC[N+](C)(C)C)C=C2)oc2ccccc21", "λF (fluorescence maximum), bound to DNA", 562),
    ("C[n+]1c(C=CC=C2C=CN(CCC[N+](C)(C)C)c3ccccc32)sc2ccccc21", "λF (fluorescence maximum), bound to DNA", 661),
]

----------
# Assay Notes: Absorption spectra of free dye in methanol or pH 7.4 buffer
# Assay type: physicochemical
# Test Context: methanol, no DNA
Quantity Measured: λA (absorption maximum) (nm)

Worked cases, λA (absorption maximum) given:
# Record Smiles, λA (absorption maximum) [nm]
data = [
    ("C[n+]1c(C=CC=C2C=CN(CCC[N+](C)(C)C)c3ccccc32)oc2ccccc21", 600),
    ("C[n+]1c(C=C2C=CN(CCC[N+](C)(C)C)C=C2)sc2ccccc21", 452),
    ("C[n+]1c(C=C2C=CN(CCC[N+](C)(C)C)c3ccccc32)sc2ccccc21", 507),
    ("C[n+]1c(C=CC=CC=C2C=CN(CCC[N+](C)(C)C)C=C2)sc2ccccc21", 564),
]

(I) C[n+]1c(C=C2C=CN(CCC[N+](C)(C)C)C=C2)oc2ccccc21
(II) C[n+]1c(C=CC=C2C=CN(CCC[N+](C)(C)C)c3ccccc32)sc2ccccc21
Between the entries labeled I and II , whose measured λA (absorption maximum) is lower? Output the label that corresponds to your choice. I

----------
εmax (extinction coefficient) reference
# Assay Notes: Absorption spectra of free dye in methanol or pH 7.4 buffer
# Assay type: physicochemical
# Test Context: methanol, no DNA

# Record Smiles, εmax (extinction coefficient)
records = [
    ("C[n+]1c(C=C2C=CN(CCC[N+](C)(C)C)C=C2)sc2ccccc21", "80,200 M^-1 cm^-1"),
]

Determine its reported εmax (extinction coefficient): `C[n+]1c(C=CC=C2C=CN(CCC[N+](C)(C)C)c3ccccc32)sc2ccccc21` 143,200 M^-1 cm^-1

Determine its reported εmax (extinction coefficient): `C[n+]1c(C=C2C=CN(CCC[N+](C)(C)C)C=C2)oc2ccccc21` 77,500 M^-1 cm^-1

Determine its reported εmax (extinction coefficient): `C[n+]1c(C=C2C=CN(CCC[N+](C)(C)C)c3ccccc32)sc2ccccc21` 73,800 M^-1 cm^-1

Determine its reported εmax (extinction coefficient): `C[n+]1c(C=CC=C2C=CN(CCC[N+](C)(C)C)c3ccccc32)oc2ccccc21` 133,100 M^-1 cm^-1

Determine its reported εmax (extinction coefficient): `C[n+]1c(C=C2C=CN(CCC[N+](C)(C)C)c3ccccc32)oc2ccccc21` 72,600 M^-1 cm^-1

----------
# Assay Notes: Absorption spectra of free dye in methanol or pH 7.4 buffer
# Assay type: physicochemical
# Test Context: pH 7.4 buffer, no DNA
Quantity Measured: λA (absorption maximum) (nm)

# Molecule, Quantity Measured, Result Value
data = [
    ("C[n+]1c(C=CC=C2C=CN(CCC[N+](C)(C)C)c3ccccc32)oc2ccccc21 [Compound 7]", "λA (absorption maximum)", 596),
    ("C[n+]1c(C=CC=CC=C2C=CN(CCC[N+](C)(C)C)C=C2)oc2ccccc21 [Compound 5]", "λA (absorption maximum)", 523),
    ("C[n+]1c(C=C2C=CN(CCC[N+](C)(C)C)C=C2)oc2ccccc21 [Compound 1]", "λA (absorption maximum)", 423),
    ("C[n+]1c(C=C2C=CN(CCC[N+](C)(C)C)c3ccccc32)sc2ccccc21 [Compound 4]", "λA (absorption maximum)", 506),
    ("C[n+]1c(C=CC=C2C=CN(CCC[N+](C)(C)C)c3ccccc32)sc2ccccc21 [Compound 8]", "λA (absorption maximum)", 631),
    ("C[n+]1c(C=C2C=CN(CCC[N+](C)(C)C)c3ccccc32)oc2ccccc21 [Compound 3]", "λA (absorption maximum)", 481),
    ("C[n+]1c(C=CC=CC=C2C=CN(CCC[N+](C)(C)C)C=C2)sc2ccccc21 [Compound 6]", "λA (absorption maximum)", 560),
    ("C[n+]1c(C=C2C=CN(CCC[N+](C)(C)C)C=C2)sc2ccccc21 [Compound 2]", "λA (absorption maximum)", 451),
]

----------
# System: calf thymus DNA
# Assay Notes: Absorption spectra of dye bound to calf thymus DNA
# Type: binding
# Test Context: pH 7.4 + DNA, ratio of 50 DNA base pairs per dye molecule or greater
Quantity Measured: λA (absorption maximum), bound to DNA (nm)

# Record Smiles, λA (absorption maximum), bound to DNA (nm)
records = [
    ("C[n+]1c(C=C2C=CN(CCC[N+](C)(C)C)c3ccccc32)sc2ccccc21", 515),
    ("C[n+]1c(C=C2C=CN(CCC[N+](C)(C)C)c3ccccc32)oc2ccccc21", 491),
    ("C[n+]1c(C=CC=CC=C2C=CN(CCC[N+](C)(C)C)C=C2)sc2ccccc21", 575),
    ("C[n+]1c(C=CC=C2C=CN(CCC[N+](C)(C)C)c3ccccc32)oc2ccccc21", 612),
]

----------
# System: calf thymus DNA
# Assay Notes: Fluorescence emission spectra and enhancement on binding to calf thymus DNA
# Test Context: pH 7.4 + DNA, 0.4 μM dye
Quantity Measured: λF (fluorescence maximum), bound to DNA (nm)

# Record Smiles, λF (fluorescence maximum), bound to DNA (nm)
data = [
    ("C[n+]1c(C=C2C=CN(CCC[N+](C)(C)C)c3ccccc32)oc2ccccc21", 509),
    ("C[n+]1c(C=CC=CC=C2C=CN(CCC[N+](C)(C)C)C=C2)sc2ccccc21", 599),
    ("C[n+]1c(C=C2C=CN(CCC[N+](C)(C)C)c3ccccc32)sc2ccccc21", 531),
    ("C[n+]1c(C=C2C=CN(CCC[N+](C)(C)C)C=C2)oc2ccccc21", 455),
]

----------
# Test system: calf thymus DNA
# Assay Notes: Absorption spectra of dye bound to calf thymus DNA
# Format: binding
# Test Context: pH 7.4 + DNA, ratio of 50 DNA base pairs per dye molecule or greater
Quantity Measured: εmax (extinction coefficient), bound to DNA

Worked cases, εmax (extinction coefficient), bound to DNA given:
# Record Smiles, Result Value
records = [
    ("C[n+]1c(C=CC=C2C=CN(CCC[N+](C)(C)C)c3ccccc32)sc2ccccc21", "102,000 M^-1 cm^-1"),
    ("C[n+]1c(C=CC=C2C=CN(CCC[N+](C)(C)C)c3ccccc32)oc2ccccc21", "100,100 M^-1 cm^-1"),
]

Determine its reported εmax (extinction coefficient), bound to DNA: `C[n+]1c(C=C2C=CN(CCC[N+](C)(C)C)c3ccccc32)oc2ccccc21` 52,013 M^-1 cm^-1

Determine its reported εmax (extinction coefficient), bound to DNA: `C[n+]1c(C=C2C=CN(CCC[N+](C)(C)C)c3ccccc32)sc2ccccc21` 62,800 M^-1 cm^-1

Determine its reported εmax (extinction coefficient), bound to DNA: `C[n+]1c(C=C2C=CN(CCC[N+](C)(C)C)C=C2)oc2ccccc21` 50,100 M^-1 cm^-1

Determine its reported εmax (extinction coefficient), bound to DNA: `C[n+]1c(C=C2C=CN(CCC[N+](C)(C)C)C=C2)sc2ccccc21` 58,100 M^-1 cm^-1
